Molecular target: UniProt:P99999
Test: Inhibition of cytochrome c (unknown origin) assessed as reduction reduction of cyt c from its ferric state to ferrous state at 10 uM incubated for 20 mins in presence of cardiolipin by UV-vis Spectrophotometric assay relative to control
Tick class 1 if inhibition is 10% or greater. Tick class 0 if inhibition is less than 10%.

molecule: C[C@@H]1O[C@@H](O[C@H]2[C@H](Oc3cc(O)c4c(c3)O[C@H](c3ccc(O)cc3)CC4=O)O[C@H](CO)[C@@H](O)[C@@H]2O)[C@H](O)[C@H](O)[C@H]1O
label.value: class 1
--
molecule: O=c1c(O)c(-c2ccc(O)c(O)c2)oc2cc(O)ccc12
label.value: class 1
--
molecule: O=c1cc(-c2ccc(O)c(O)c2)oc2cc(O)cc(O)c12
label.value: class 1
--
molecule: O=C(O[C@@H]1Cc2c(O)cc(O)cc2O[C@@H]1c1cc(O)c(O)c(O)c1)c1cc(O)c(O)c(O)c1 [EPIGALOCATECHIN GALLATE]
label.value: class 1
--
molecule: O=c1c(-c2ccc(O)cc2)coc2cc(O)ccc12
label.value: class 0
--
molecule: O=C1C[C@@H](c2ccccc2)Oc2ccccc21
label.value: class 1
--
molecule: O=c1c(O)c(-c2cc(O)c(O)c(O)c2)oc2cc(O)cc(O)c12
label.value: class 1
--
molecule: O=c1cc(-c2ccccc2)oc2ccccc12
label.value: class 0
--
molecule: O=c1c(-c2ccc(O)cc2)coc2cc(O)cc(O)c12
label.value: class 0

* * *

Target: Cytochrome c (Homo sapiens) (UniProt P99999)
Sequence (P99999 whole entry): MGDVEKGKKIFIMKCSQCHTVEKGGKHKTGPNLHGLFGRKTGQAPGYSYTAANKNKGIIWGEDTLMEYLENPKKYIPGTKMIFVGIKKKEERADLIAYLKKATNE
Assay: Inhibition of cytochrome c (unknown origin) assessed as reduction in cyt c-CL complex formation at 10 uM incubated for 15 mins in presence of cardiolipin by Trp-59 fluorescence assay relative to control
Reported inhibition is given for each of the following compounds.

compound: COc1ccc(-c2coc3cc(O)cc(O)c3c2=O)cc1 [BIOCHANIN]
inhibition: 37%
//
compound: O=C1c2c(O)cc(O)cc2O[C@H](c2ccc(O)c(O)c2)[C@H]1O [(+)-TAXIFOLIN]
inhibition: 58%
//
compound: O=c1cc(-c2ccccc2)oc2ccccc12
inhibition: 87%
//
compound: C[C@@H]1O[C@@H](O[C@H]2[C@H](Oc3cc(O)c4c(c3)O[C@H](c3ccc(O)cc3)CC4=O)O[C@H](CO)[C@@H](O)[C@@H]2O)[C@H](O)[C@H](O)[C@H]1O [NARINGIN]
inhibition: 81%
//
compound: O=c1c(O)c(-c2ccc(O)cc2)oc2cc(O)cc(O)c12 [KAEMPFEROL]
inhibition: 83%
//
compound: C[C@@H]1O[C@@H](OC[C@H]2O[C@@H](Oc3c(-c4ccc(O)c(O)c4)oc4cc(O)cc(O)c4c3=O)[C@H](O)[C@@H](O)[C@@H]2O)[C@H](O)[C@H](O)[C@H]1O [RUTIN]
inhibition: 66%

* * *

compounds and their reported logD at 1 h
Assay: Octanol-water distribution coefficient, log D of the compound at pH 7.4 after 1 hr by UV-VIS spectroscopic analysis
Format: physicochemical

compound: COc1ccc([C@@H]2CC(=O)c3c(O)cc(O)cc3O2)cc1O
logD at 1 h: 2.22
//
compound: COc1ccc(-c2coc3cc(O)cc(O)c3c2=O)cc1
logD at 1 h: 2.82
//
compound: O=C1C[C@@H](c2ccccc2)Oc2ccccc21
logD at 1 h: 2.95
//
compound: O=c1c(-c2ccc(O)cc2)coc2cc(O)cc(O)c12
logD at 1 h: 2.68
//
compound: O=c1c(O)c(-c2ccc(O)cc2)oc2cc(O)cc(O)c12
logD at 1 h: 3.39
//
compound: Oc1cc(O)c2c(c1)O[C@H](c1ccc(O)c(O)c1)[C@@H](O)C2
logD at 1 h: 0.01
//
compound: O=c1c(O)c(-c2ccc(O)c(O)c2)oc2cc(O)ccc12
logD at 1 h: 2.29
//
compound: C[C@@H]1O[C@@H](O[C@H]2[C@H](Oc3cc(O)c4c(c3)O[C@H](c3ccc(O)cc3)CC4=O)O[C@H](CO)[C@@H](O)[C@@H]2O)[C@H](O)[C@H](O)[C@H]1O
logD at 1 h: -0.87
//
compound: O=C1C[C@@H](c2ccc(O)cc2)Oc2cc(O)cc(O)c21
logD at 1 h: 2.35
//
compound: O=c1cc(-c2ccc(O)c(O)c2)oc2cc(O)cc(O)c12
logD at 1 h: 2.7
//
compound: O=C1c2c(O)cc(O)cc2O[C@H](c2ccc(O)c(O)c2)[C@H]1O [(+)-TAXIFOLIN]
logD at 1 h: 0.67

* * *

Below, each entry is listed with its recorded log10(K).
Biological target: Cytochrome c (Homo sapiens) (UniProt P99999)
Test: Inhibition of cytochrome c (unknown origin) assessed as reduction reduction of cyt c from its ferric state to ferrous state incubated for 20 mins in presence of cardiolipin by UV-vis Spectrophotometric assay
measured.property: log10(K) (log10 of the value in M⁻¹ s⁻¹)

compound: COc1ccc([C@@H]2CC(=O)c3c(O)cc(O)cc3O2)cc1O
assay.target: Cytochrome c (Homo sapiens) (UniProt P99999)
recorded.result: -1.00

compound: Oc1cc(O)c2c(c1)O[C@H](c1ccc(O)c(O)c1)[C@@H](O)C2
assay.target: Cytochrome c (Homo sapiens) (UniProt P99999)
recorded.result: 0.30

compound: O=c1c(O)c(-c2cc(O)c(O)c(O)c2)oc2cc(O)cc(O)c12
assay.target: Cytochrome c (Homo sapiens) (UniProt P99999)
recorded.result: 3.01

compound: O=C1c2c(O)cc(O)cc2O[C@H](c2ccc(O)c(O)c2)[C@H]1O [(+)-TAXIFOLIN]
assay.target: Cytochrome c (Homo sapiens) (UniProt P99999)
recorded.result: 0.00

compound: O=c1c(O)c(-c2ccc(O)cc2)oc2cc(O)cc(O)c12
assay.target: Cytochrome c (Homo sapiens) (UniProt P99999)
recorded.result: 1.96

compound: O=C1C[C@@H](c2ccc(O)cc2)Oc2cc(O)cc(O)c21
assay.target: Cytochrome c (Homo sapiens) (UniProt P99999)
recorded.result: -2.70

compound: O=c1c(O)c(-c2ccc(O)c(O)c2)oc2cc(O)ccc12
assay.target: Cytochrome c (Homo sapiens) (UniProt P99999)
recorded.result: 2.34

* * *

Target: UniProtKB P99999
measured.property: T1/2 (min)

compound: O=C(O[C@@H]1Cc2c(O)cc(O)cc2O[C@@H]1c1cc(O)c(O)c(O)c1)c1cc(O)c(O)c(O)c1 [EPIGALOCATECHIN GALLATE]
recorded.result: 1.3
//
compound: O=c1c(O)c(-c2cc(O)c(O)c(O)c2)oc2cc(O)cc(O)c12 [MYRICETIN]
recorded.result: 0.08
//
compound: O=c1cc(-c2ccc(O)c(O)c2)oc2cc(O)cc(O)c12 [LUTEOLIN]
recorded.result: 11
//
compound: O=c1c(O)c(-c2ccc(O)cc2)oc2cc(O)cc(O)c12 [KAEMPFEROL]
recorded.result: 1.2

* * *

The reader will find reported inhibition values listed item by item below.
Target: Cytochrome c (Homo sapiens)
Test: Inhibition of cytochrome c (unknown origin) assessed as reduction reduction of cyt c from its ferric state to ferrous state at 10 uM incubated for 20 mins in presence of cardiolipin by UV-vis Spectrophotometric assay relative to control

compound: O=c1c(O)c(-c2ccc(O)cc2)oc2cc(O)cc(O)c12 [KAEMPFEROL]
value.unit: %
inhibition: 83
--
compound: COc1ccc([C@@H]2CC(=O)c3c(O)cc(O)cc3O2)cc1O [HESPERETIN]
value.unit: %
inhibition: 7.8
--
compound: C[C@@H]1O[C@@H](OC[C@H]2O[C@@H](Oc3c(-c4ccc(O)c(O)c4)oc4cc(O)cc(O)c4c3=O)[C@H](O)[C@@H](O)[C@@H]2O)[C@H](O)[C@H](O)[C@H]1O [RUTIN]
value.unit: %
inhibition: 19
--
compound: O=c1cc(-c2ccccc2)oc2cc(O)c(O)c(O)c12 [BAICALEIN]
value.unit: %
inhibition: 79

* * *

Test: Octanol-water distribution coefficient, log D of the compound at pH 7.4 after 1 hr by UV-VIS spectroscopic analysis
Assay type: physicochemical

molecule: O=C(O[C@@H]1Cc2c(O)cc(O)cc2O[C@@H]1c1cc(O)c(O)c(O)c1)c1cc(O)c(O)c(O)c1 [EPIGALOCATECHIN GALLATE]
logD at 1 h: 0.04

molecule: O=c1c(O)c(-c2cc(O)c(O)c(O)c2)oc2cc(O)cc(O)c12
logD at 1 h: 0.91

molecule: C[C@@H]1O[C@@H](OC[C@H]2O[C@@H](Oc3c(-c4ccc(O)c(O)c4)oc4cc(O)cc(O)c4c3=O)[C@H](O)[C@@H](O)[C@@H]2O)[C@H](O)[C@H](O)[C@H]1O
logD at 1 h: -0.67

molecule: O=c1cc(-c2ccccc2)oc2cc(O)c(O)c(O)c12
logD at 1 h: 2.51

From: ChEMBL document CHEMBL4765494
